# TEST SYSTEM: rhVEGF165-biotin (Homo sapiens, UniProt P15692)
# PROTOCOL DETAILS: VEGF-Binding ELISA (dose-response)
# EXPERIMENTAL CONTEXT: Table 6; **tested after re-synthesised; $solubility problems
QUANTITY MEASURED: IC50
Lab note: write values as number then unit, every time.

Task: Tell me the measured IC50 of NC(=O)c1ccc(Cl)c(NC(=O)c2csc(C3CCN(C(=O)Cc4ccccc4Cl)CC3)n2)c1 [Compound 1633-00375] , please.
Result: 9 µM

###

# Test system: human umbilical vein endothelial cells (HUVEC)
# PROTOCOL DETAILS: HUVEC proliferation assay co-stimulated with rhVEGF
# Type: cell-based
# EXPERIMENTAL CONTEXT: Homo sapiens, HUVEC, Table 6; ***re-tested in full-concentration response assays
QUANTITY MEASURED: IC50 (µM)
Quick reminder: number only, in µM, skip the unit.

Task: Tell me the measured IC50 of `NC(=O)c1ccc(Cl)c(NC(=O)c2csc(C3CCN(C(=O)CSc4ncccn4)CC3)n2)c1` , please.
Result: 12

###

# TEST SYSTEM: rhVEGF165-biotin (Homo sapiens, UniProt P15692)
# Sequence (P15692 27-191 isoform P15692-4): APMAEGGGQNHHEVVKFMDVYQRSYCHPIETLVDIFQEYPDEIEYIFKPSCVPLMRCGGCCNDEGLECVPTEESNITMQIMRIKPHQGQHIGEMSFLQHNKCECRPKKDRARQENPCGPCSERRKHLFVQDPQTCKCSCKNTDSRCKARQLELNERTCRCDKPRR
# PROTOCOL DETAILS: VEGF-Binding ELISA (dose-response)
# EXPERIMENTAL CONTEXT: Table 6; first test (unmarked value)
QUANTITY MEASURED: log10 of IC50 (log10 of the value in µM)
Field: value | Transform: log10 | Quantity: IC50 | Unit: µM

Task: Tell me the measured log10 of IC50 of `NC(=O)c1ccc(Cl)c(NC(=O)c2csc(C3CCN(C(=O)CCc4ccco4)CC3)n2)c1` , please.
Result: 0.70

Task: Tell me the measured log10 of IC50 of `NC(=O)c1ccc(Cl)c(NC(=O)c2csc(C3CCN(C(=O)Cc4ccccc4Cl)CC3)n2)c1` , please.
Result: 0.70

Task: Tell me the measured log10 of IC50 of `NC(=O)Cc1ccc(Cl)c(NC(=O)c2csc(C3CCN(C(=O)CCc4ccco4)CC3)n2)c1` , please.
Result: 1.11

Task: Tell me the measured log10 of IC50 of `CN(C)c1cccc(C(=O)N2CCC(c3nc(C(=O)Nc4cc(CC(N)=O)ccc4Cl)cs3)CC2)c1` , please.
Result: 1.08

Task: Tell me the measured log10 of IC50 of `C=CCCOc1ccc(C(=O)N2CCC(c3nc(C(=O)Nc4cc(C(N)=O)ccc4Cl)cs3)CC2)cc1` , please.
Result: 1.48

Task: Tell me the measured log10 of IC50 of `NC(=O)c1ccc(Cl)c(NC(=O)c2csc(C3CCN(C(=O)CSc4ncccn4)CC3)n2)c1` , please.
Result: -0.18

###

# TEST SYSTEM: VEGF (Homo sapiens, UniProt P15692)
# PROTOCOL DETAILS: Initial medium throughput ELISA assay for inhibition of VEGF (primary screening)
# Format: binding
# EXPERIMENTAL CONTEXT: initial assessment, primary screening at compound concentration of 50 μM, repeats listed
QUANTITY MEASURED: inhibition at 50 µM (%)
Quick reminder: number only, in %, skip the unit.

Task: Tell me the measured inhibition at 50 µM of COc1ccc(C(N)=O)cc1NC(=O)c1csc(C2CCN(C(=O)C3C(C)(C)C3(C)C)CC2)n1 [Compound 1506-01638] , please.
Result: 89

Task: Tell me the measured inhibition at 50 µM of COc1ccc(C(N)=O)cc1NC(=O)c1csc(C2CCN(C(=O)c3cc4ccccc4o3)CC2)n1 [Compound 1506-01284] , please.
Result: 85

Task: Tell me the measured inhibition at 50 µM of COc1ccc(C(N)=O)cc1NC(=O)c1csc(C2CCN(C(=O)Cc3ccccc3Cl)CC2)n1 [Compound 1506-03737] , please.
Result: 60

Task: Tell me the measured inhibition at 50 µM of COc1ccc(C(N)=O)cc1NC(=O)c1csc(C2CCN(C(=S)Nc3ccc(N(C)C)cc3)CC2)n1 [Compound 1506-06813] , please.
Result: 88

Task: Tell me the measured inhibition at 50 µM of COc1ccc(C(N)=O)cc1NC(=O)c1csc(C2CCN(C(=O)C#Cc3ccccc3)CC2)n1 [Compound 1506-01461] , please.
Result: 88

Task: Tell me the measured inhibition at 50 µM of COc1ccc(C(N)=O)cc1NC(=O)c1csc(C2CCN(C(=O)c3nnc4cc(C)nn4c3C)CC2)n1 [Compound 1506-00581] , please.
Result: 88

Task: Tell me the measured inhibition at 50 µM of COc1ccc(C(N)=O)cc1NC(=O)c1csc(C2CCN(C(=O)c3ccccc3C(F)(F)F)CC2)n1 [Compound 1506-03388] , please.
Result: 93

Task: Tell me the measured inhibition at 50 µM of COc1ccc(C(N)=O)cc1NC(=O)c1csc(C2CCN(C(=O)c3cnn(-c4ccccc4)c3)CC2)n1 [Compound 1506-08772] , please.
Result: 91

Task: Tell me the measured inhibition at 50 µM of COc1ccc(C(N)=O)cc1NC(=O)c1csc(C2CCN(C(=O)COc3ccc(C)c(C)c3)CC2)n1 [Compound 1506-03914] , please.
Result: 77

Task: Tell me the measured inhibition at 50 µM of COc1ccc(C(N)=O)cc1NC(=O)c1csc(C2CCN(C(=O)N3CCN(c4ccccn4)CC3)CC2)n1 [Compound 1506-08218] , please.
Result: 52
